System: MYB
Assay: Splicing RT-qPCR assay, MYB mRNA canonical junction (CJ) and alternative junction (AJ)
Format: cell-based, human
Settings: Homo sapiens, 24 h, decrease in CJ mRNA; A673 or K562 cells, 24 hours treatment, RT-qPCR; read-out: MYB CJ IC50
// reported IC50 for each item listed
propertyMeasured: IC50

>>> observedresult("c1nc2c(-c3cn[nH]c3)ccc(-c3ccc(N4CCC45CCNCC5)nn3)c2s1")
"1 to 10 µM"
>>> observedresult("CN(c1ccc(-c2ccc(-c3cn[nH]c3)c3cn[nH]c23)nn1)C1CCNCC1")
"> 10 µM"
>>> observedresult("Cn1cc(-c2c(F)cc(-c3ccc(NC4CCNCC4)nn3)c3[nH]ncc23)cn1")
"1 to 10 µM"
>>> observedresult("c1nc2c(-c3cn[nH]c3)ccc(-c3ccc(N4CCNC(C5CC5)C4)nn3)c2s1 (stereo not drawn)")
"1 to 10 µM"
>>> observedresult("CN(c1ccc(-c2ccc(-c3cnn(C4CC4)n3)c3cn[nH]c23)nn1)[C@@H]1C[C@H]2CC[C@@H](C1)N2")
"1 to 10 µM"
>>> observedresult("CN(c1ccc(-c2ccc(-c3cn[nH]c3)c3cn[nH]c23)nn1)[C@H]1C[C@]2(C)CC[C@](C)(C1)N2")
"0.1 to 1 µM"
>>> observedresult("CN(c1ncc(-c2ccc(-c3cn[nH]c3)c3ncsc23)nn1)[C@@H]1C[C@H]2CC[C@@H](C1)N2")
"0.1 to 1 µM"
>>> observedresult("CN(c1ccc(-c2ccc(-c3cn[nH]c3)c3[nH]ncc23)nn1)[C@@H]1C[C@H]2CC[C@@H](C1)N2")
"> 10 µM"
>>> observedresult("CN(c1ccc(-c2ccc(-c3cnn(C)c3)c3scnc23)nn1)C1CC(C)(C)NC(C)(C)C1")
"> 10 µM"
>>> observedresult("CN(c1ccc(-c2ccc(-c3cnn(CC4CC4)n3)c3cn[nH]c23)nn1)[C@@H]1C[C@H]2CC[C@@H](C1)N2")
"1 to 10 µM"
>>> observedresult("CN(c1ccc(-c2ccc(-c3cnn(C)c3)c3cn[nH]c23)nn1)C1CCNCC1")
"> 10 µM"
>>> observedresult("Cc1[nH]ncc1-c1ccc(-c2ccc(N(C)C3CC(C)(C)NC(C)(C)C3)nn2)c2ncsc12")
"> 10 µM"
>>> observedresult("CC1(C)CC(Oc2ccc(-c3ccc(-c4cn[nH]c4)c4ncsc34)nn2)CC(C)(C)N1")
"> 10 µM"
>>> observedresult("c1cnn(-c2ccc(-c3ccc(N4CCC(NC5CC5)C4)nn3)c3[nH]ncc23)c1 (stereo not drawn)")
"> 10 µM"
>>> observedresult("c1cnn(-c2ccc(-c3ccc(O[C@@H]4C[C@H]5CC[C@@H](C4)N5)nn3)c3scnc23)c1")
"> 10 µM"
>>> observedresult("CN(c1ccc(-c2ccc(-c3ccc(=O)n(C)c3)c3cn[nH]c23)nn1)[C@@H]1C[C@H]2CC[C@@H](C1)N2")
"> 10 µM"
>>> observedresult("CC1(C)CC(Oc2ccc(-c3ccc(-n4cccn4)c4ncsc34)nn2)CC(C)(C)N1")
"1 to 10 µM"
>>> observedresult("c1n[nH]cc1-c1ccc(-c2ccc(O[C@@H]3C[C@H]4CC[C@@H](C3)N4)nn2)c2cn[nH]c12")
"> 10 µM"
>>> observedresult("Cc1ncc(-c2ccc(-c3ccc(N(C)C4CC(C)(C)NC(C)(C)C4)nn3)c3scnc23)o1")
"1 to 10 µM"
>>> observedresult("C[C@@H]1C[C@H](N(C)c2ccc(-c3ccc(-c4cn[nH]c4)c4nn[nH]c34)nn2)CCN1")
"> 10 µM"
>>> observedresult("CC(C)(C)NC1CCN(c2ccc(-c3ccc(-n4cccn4)c4[nH]ncc34)nn2)C1 (stereo not drawn)")
"1 to 10 µM"
>>> observedresult("c1n[nH]cc1-c1ccc(-c2ccc(N3CCC4(CCCNC4)C3)nn2)c2[nH]ncc12 (stereo not drawn)")
"> 10 µM"
>>> observedresult("CN(c1ccc(-c2ccc(-c3cn[nH]c3)c3cn[nH]c23)nn1)[C@@H]1C[C@H]2CC(F)(F)[C@@H](C1)N2 (stereo in doubt)")
"0.1 to 1 µM"
>>> observedresult("c1cnn(-c2ccc(-c3ccc(O[C@@H]4C[C@H]5CC[C@@H](C4)N5)nn3)c3cn[nH]c23)c1")
"< 0.1 µM"
>>> observedresult("C[C@H]1C[C@@H](N(C)c2ccc(-c3ccc(-c4cn[nH]c4)c4cc[nH]c34)nn2)CCN1")
"> 10 µM"
>>> observedresult("CN(c1ccc(-c2ccc(-c3ccc(=O)[nH]c3)c3scnc23)nn1)C1CC(C)(C)NC(C)(C)C1")
"0.1 to 1 µM"
>>> observedresult("c1n[nH]cc1-c1ccc(-c2ccc(N3CCCC4(CCNC4)C3)nn2)c2[nH]ncc12 (stereo not drawn)")
"> 10 µM"
>>> observedresult("CN1C[C@@H]2CN(c3ccc(-c4ccc(-c5cn[nH]c5)c5cn[nH]c45)nn3)C[C@@H]2C1")
"> 10 µM"
>>> observedresult("CCn1ncc(-c2ccc(-c3ccc(N(C)[C@@H]4C[C@H]5CC[C@@H](C4)N5)nn3)c3[nH]ncc23)n1")
"0.1 to 1 µM"
>>> observedresult("c1n[nH]cc1-c1ccc(-c2ccc(OC3CCNCC3)nn2)c2[nH]ncc12")
"> 10 µM"
